EXPERIMENTAL SYSTEM: various mutants of kinase EGFR (BaF3 cell lines stably transfected with kinase) (Homo sapiens, UniProt P00533, T790M/C797S, form not given)
Construct: other: BaF3 cells stably transfected with EGFR Δ19Del/T790M/C797S; MTS, 48; other: BaF3 cell line stably transfected with EGFR Δ19Del/T790M/C7
Sequence (P00533 with tags, fused parts or gaps DEL746-750/T790M/C797S, form open): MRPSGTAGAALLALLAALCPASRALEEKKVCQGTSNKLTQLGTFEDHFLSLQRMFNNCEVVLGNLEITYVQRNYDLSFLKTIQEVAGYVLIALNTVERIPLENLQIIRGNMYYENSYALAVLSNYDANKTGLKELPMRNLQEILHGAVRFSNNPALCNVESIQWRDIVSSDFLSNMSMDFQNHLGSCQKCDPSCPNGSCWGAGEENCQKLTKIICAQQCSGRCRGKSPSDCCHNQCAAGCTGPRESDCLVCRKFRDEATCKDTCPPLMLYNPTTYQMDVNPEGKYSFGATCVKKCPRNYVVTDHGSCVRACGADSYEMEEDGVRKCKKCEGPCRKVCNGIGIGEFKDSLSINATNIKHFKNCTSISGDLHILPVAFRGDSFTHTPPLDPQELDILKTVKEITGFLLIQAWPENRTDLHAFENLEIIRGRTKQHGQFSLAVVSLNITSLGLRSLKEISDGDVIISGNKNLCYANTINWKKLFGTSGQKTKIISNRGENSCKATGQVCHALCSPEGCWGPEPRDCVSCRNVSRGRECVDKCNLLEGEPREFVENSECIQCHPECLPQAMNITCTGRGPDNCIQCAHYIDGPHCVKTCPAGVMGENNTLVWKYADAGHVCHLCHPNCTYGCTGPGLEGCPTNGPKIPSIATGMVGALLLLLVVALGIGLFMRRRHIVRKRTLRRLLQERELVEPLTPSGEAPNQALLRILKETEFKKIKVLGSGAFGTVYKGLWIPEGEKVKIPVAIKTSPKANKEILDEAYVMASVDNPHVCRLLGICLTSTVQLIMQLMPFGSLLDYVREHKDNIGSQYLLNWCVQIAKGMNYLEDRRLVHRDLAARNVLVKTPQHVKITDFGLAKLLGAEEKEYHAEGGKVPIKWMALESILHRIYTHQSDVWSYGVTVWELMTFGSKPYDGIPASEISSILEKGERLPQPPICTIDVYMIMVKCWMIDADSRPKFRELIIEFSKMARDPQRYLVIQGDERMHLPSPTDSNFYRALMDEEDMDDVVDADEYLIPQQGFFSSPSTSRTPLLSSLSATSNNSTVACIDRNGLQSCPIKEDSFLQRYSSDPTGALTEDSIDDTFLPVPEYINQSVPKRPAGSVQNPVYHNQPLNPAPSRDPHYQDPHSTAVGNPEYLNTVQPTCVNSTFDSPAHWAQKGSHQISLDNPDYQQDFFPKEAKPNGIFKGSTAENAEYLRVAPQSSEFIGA
PROCEDURE TEXT: Growth inhibitory activity of compounds on BaF3 cell lines stably transfected with kinase (MTS, 48 h)
Type: cell-based
TEST SETTINGS: BaF3 cells stably transfected with EGFR Δ19Del/T790M/C797S, read-out: IC50, growth inhibition, Δ19Del/T790M/C797S
Assignment: determine reported IC50 for the given compounds.

Would you please look over these solved cases?
1. CCc1cc(Nc2ncc(Br)c(Nc3ccc4nccnc4c3N(C)S(=O)(=O)C(F)(F)F)n2)c(OC)cc1N1CCC(N2CCN(C)CC2)CC1 ≤ 50 nM
2. CCc1cc(Nc2ncc(Cl)c(Nc3ccc4nccnc4c3N(C)S(=O)(=O)C(F)(F)F)n2)c(OC(F)(F)F)cc1N1CCC(N2CCN(C)CC2)CC1 50 to 500 nM

Then this compound:
Determine from records and report IC50 for CCc1cc(Nc2ncc(Br)c(Nc3ccc4nccnc4c3N(C)S(=O)(=O)C(F)(F)F)n2)c(OC)nc1N1CCC(N2CCN(C)CC2)CC1
≤ 50 nM

====

Provide the reported pIC50 of each item.
EXPERIMENTAL SYSTEM: various mutants of kinase EGFR (BaF3 cell lines stably transfected with kinase) (Homo sapiens, UniProt P00533)
Construct: other: BaF3 cells stably transfected with EGFR Δ19Del; MTS, 48 h; other: BaF3 cell line stably transfected with EGFR Δ19Del
Sequence (P00533 with tags, fused parts or gaps DEL746-750): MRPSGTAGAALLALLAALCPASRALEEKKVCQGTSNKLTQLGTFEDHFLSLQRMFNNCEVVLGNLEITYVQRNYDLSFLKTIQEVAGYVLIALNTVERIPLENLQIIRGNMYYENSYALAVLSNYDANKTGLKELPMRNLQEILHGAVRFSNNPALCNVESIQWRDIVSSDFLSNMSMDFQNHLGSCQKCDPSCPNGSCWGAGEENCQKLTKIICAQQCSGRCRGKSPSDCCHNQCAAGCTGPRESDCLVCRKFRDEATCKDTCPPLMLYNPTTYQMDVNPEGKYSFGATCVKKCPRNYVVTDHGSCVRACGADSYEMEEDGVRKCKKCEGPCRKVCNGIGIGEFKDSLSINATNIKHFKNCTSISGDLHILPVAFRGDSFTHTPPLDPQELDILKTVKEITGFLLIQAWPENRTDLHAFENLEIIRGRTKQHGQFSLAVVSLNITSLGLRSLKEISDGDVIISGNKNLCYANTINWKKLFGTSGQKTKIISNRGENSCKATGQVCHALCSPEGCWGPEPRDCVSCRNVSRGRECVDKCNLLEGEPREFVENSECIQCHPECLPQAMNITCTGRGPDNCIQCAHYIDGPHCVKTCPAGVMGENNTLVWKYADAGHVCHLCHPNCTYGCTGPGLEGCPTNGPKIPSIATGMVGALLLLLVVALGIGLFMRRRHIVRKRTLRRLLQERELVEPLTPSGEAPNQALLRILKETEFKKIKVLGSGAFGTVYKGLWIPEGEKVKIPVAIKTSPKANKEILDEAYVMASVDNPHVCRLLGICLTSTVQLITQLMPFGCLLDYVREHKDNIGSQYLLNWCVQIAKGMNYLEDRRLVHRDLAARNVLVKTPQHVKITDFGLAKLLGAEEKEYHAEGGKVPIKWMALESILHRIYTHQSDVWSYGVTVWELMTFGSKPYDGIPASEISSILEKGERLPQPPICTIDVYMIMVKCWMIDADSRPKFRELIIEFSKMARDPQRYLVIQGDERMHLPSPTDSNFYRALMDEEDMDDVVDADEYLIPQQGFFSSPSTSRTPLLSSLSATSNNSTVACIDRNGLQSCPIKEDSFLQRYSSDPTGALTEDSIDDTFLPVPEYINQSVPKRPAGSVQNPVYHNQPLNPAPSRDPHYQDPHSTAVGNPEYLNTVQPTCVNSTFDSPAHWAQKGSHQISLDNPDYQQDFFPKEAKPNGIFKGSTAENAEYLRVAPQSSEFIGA
PROCEDURE TEXT: Growth inhibitory activity of compounds on BaF3 cell lines stably transfected with kinase (MTS, 48 h)
Format: cell-based
TEST SETTINGS: BaF3 cells stably transfected with EGFR Δ19Del, read-out: IC50, growth inhibition, Δ19Del
pIC50: −log10 of the molar value.

Use these answered entries as a reference point.
COMPOUND	pIC50
COc1cc(N2CCC(N3CCN(C)CC3)CC2)c(C)cc1Nc1ncc(C(F)(F)F)c(Nc2ccc3nccnc3c2N(C)S(C)(=O)=O)n1 [Compound I-34]	≥ 7.30
CCc1cc(Nc2ncc(Br)c(Nc3ccc4nccnc4c3N(C)S(=O)(=O)C(F)(F)F)n2)c(OC)nc1N1CCC(N2CCN(C)CC2)CC1 [Compound I-257]	5.60 to 6.30
COc1ccc(NC(=O)CN(C)C)cc1Nc1ncc(Br)c(Nc2ccc3nccnc3c2N(C)S(C)(=O)=O)n1 [Compound I-85]	6.30 to 7.30
COc1cc(N2CCC(N3CCN(C)CC3)CC2)c(CC2CC2)cc1Nc1ncc(Cl)c(Nc2ccc3nccnc3c2N(C2CC2)S(C)(=O)=O)n1 [Compound I-242]	6.30 to 7.30
CCc1cc(Nc2ncc(Br)c(Nc3ccc4nccnc4c3N(C)S(=O)(=O)C3CC3)n2)c(OC)nc1N1CCC(N2CCN(C)CC2)CC1 [Compound I-218]	6.30 to 7.30
CCc1cc(Nc2ncc(Br)c(Nc3ccc4nccnc4c3N(C3CC3)S(C)(=O)=O)n2)c(OC)cc1N1CCC(N(C)C)C1 (stereo not shown) [Compound I-158]	6.30 to 7.30
CCc1cc(Nc2ncc(Br)c(Nc3ccc4nccnc4c3N(C)S(C)(=O)=O)n2)c(OC)cc1N1CCN(C)CC1 [Compound I-15]	≥ 7.30
CCc1cc(Nc2ncc(Br)c(Nc3ccc4nccnc4c3N(CC)S(C)(=O)=O)n2)c(OC)cc1N1CCC(N(C)C)C1 (stereo not shown) [Compound I-98]	6.30 to 7.30
CCc1cc(Nc2ncc(C(F)(F)F)c(Nc3ccc4nccnc4c3N(C)S(C)(=O)=O)n2)c(OC)cc1N1CCC(N(C)C)CC1 [Compound I-206]	≥ 7.30
CCc1cc(Nc2ncc(Br)c(Nc3ccc4nccnc4c3N(C)S(=O)(=O)C3CC3)n2)c(OC(F)(F)F)cc1N1CCC(N2CCN(C)CC2)CC1 [Compound I-106]	6.30 to 7.30

For every listed record, write down its pIC50.
1. CCS(=O)(=O)N(C)c1c(Nc2nc(Nc3cc(C)c(N4CCC(N5CCN(C)CC5)CC4)cc3OC)ncc2Br)ccc2nccnc12 [Compound I-99]
2. COc1cc(N2CCC(N3CCN(C)CC3)CC2)ccc1Nc1ncc([N+](=O)[O-])c(Nc2ccc3nccnc3c2N(C)S(C)(=O)=O)n1 [Compound I-30]
3. COc1cc(N2CCC(N3CCN(C)CC3)CC2)ccc1Nc1ncc(Br)c(Nc2ccc3nccnc3c2N(C)S(=O)(=O)C2CC2)n1 [Compound I-215]

1. ≥ 7.30
2. 5.60 to 6.30
3. 6.30 to 7.30
